target: human SIRPα v2 expressed on cells (CHOK1 stable line KYinno KC-1720) (human) (UniProt P78324); assay: FACS, CHOK1-hSIRPα v2 cells
Reported TOP MFI values follow for various binders
Write it as a number; the unit MFI goes unstated.

Record excerpt, results attached:
BINDER | OUTPUT_UNIT | TOP MFI
hu025.033 (antibody, V domains shown) VH: EVQLVQSGAEVKKPGATVKISCKVSGFNIKDYYMHWVQQAPGKGLEWIGRIDPEDAETKYAPKFQGRVTITADTSTDTAYMELSSLRSEDTAVYYCDRGLAYWGQGTLVTVSS VL: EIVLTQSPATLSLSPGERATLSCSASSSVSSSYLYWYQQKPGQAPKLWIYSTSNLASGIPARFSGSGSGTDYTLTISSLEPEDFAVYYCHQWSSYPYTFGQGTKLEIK | MFI | 39800
hu025.021 (antibody, V domains shown) VH: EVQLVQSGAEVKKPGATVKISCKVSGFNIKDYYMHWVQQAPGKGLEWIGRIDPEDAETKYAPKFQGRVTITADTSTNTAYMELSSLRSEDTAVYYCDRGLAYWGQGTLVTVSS VL: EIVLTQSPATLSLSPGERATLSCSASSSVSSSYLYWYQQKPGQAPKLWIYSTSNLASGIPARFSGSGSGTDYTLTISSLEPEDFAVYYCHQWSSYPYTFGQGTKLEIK | MFI | 46400

GET /values?readout=TOP MFI&item= hu025.059 (antibody, V domains shown) VH: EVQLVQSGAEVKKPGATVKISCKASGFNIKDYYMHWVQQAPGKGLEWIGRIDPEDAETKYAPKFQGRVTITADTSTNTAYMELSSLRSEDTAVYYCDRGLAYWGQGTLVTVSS VL: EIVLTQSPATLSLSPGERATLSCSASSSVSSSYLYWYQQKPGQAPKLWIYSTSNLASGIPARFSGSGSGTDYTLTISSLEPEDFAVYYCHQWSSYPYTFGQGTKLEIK
47300

# credit: patent US20250270315A1
